- measurement description: Octanol-water partition coefficient, log P of the compound
- Type: physicochemical
- condition description: read-out: logP
Measured logP values are reported for all entries that follow.
Number only, please.

Here's what some known entries look like.
>  <item smiles>
O=[N+]([O-])/N=C1\N(CCCCN2CCN(Cc3ccc(Cl)nc3)/C2=N/[N+](=O)[O-])CCN1Cc1ccc(Cl)nc1

>  <logP>
4.56

$$$$
>  <item smiles>
O=[N+]([O-])/N=C1\N(CCCCCN2CCN(Cc3ccc(Cl)nc3)/C2=N/[N+](=O)[O-])CCN1Cc1ccc(Cl)nc1

>  <logP>
4.77

$$$$
>  <item smiles>
O=[N+]([O-])/N=C1\N(CCN2CCN(Cc3ccc(Cl)nc3)/C2=N/[N+](=O)[O-])CCN1Cc1ccc(Cl)nc1

>  <logP>
4.13

$$$$
>  <item smiles>
O=[N+]([O-])/N=C1\N(CCCCCCCCCCN2CCN(Cc3ccc(Cl)nc3)/C2=N/[N+](=O)[O-])CCN1Cc1ccc(Cl)nc1

>  <logP>
5.76

$$$$
>  <item smiles>
O=[N+]([O-])/N=C1\N(CCCN2CCN(Cc3ccc(Cl)nc3)/C2=N/[N+](=O)[O-])CCN1Cc1ccc(Cl)nc1

>  <logP>
4.35

$$$$
>  <item smiles>
O=[N+]([O-])/N=C1\N(CCCCCCN2CCN(Cc3ccc(Cl)nc3)/C2=N/[N+](=O)[O-])CCN1Cc1ccc(Cl)nc1

>  <logP>
4.97

$$$$

As a next step, examine the molecule that follows.
Q) Specify reported logP for the molecule shown: `O=[N+]([O-])/N=C1\N(Cc2ccc(CN3CCN(Cc4ccc(Cl)nc4)/C3=N/[N+](=O)[O-])cc2)CCN1Cc1ccc(Cl)nc1`
A) 5.69

Origin of measurements: ChEMBL document CHEMBL3044942
